Assignment: determine reported protein stability index for the given variants.
B1: LMNB1 (parent)
chain: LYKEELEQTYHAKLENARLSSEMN

Variants of: B1
Experiment: protein stability index of a GFP-peptide fusion (GPS, HEK-293T) (PSI 1-6); higher = more stable;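 further: lentivirally expressed fusions sorted by FACS into six bins by GFP to DsRed ratio, PSI derived from sequencing read proportions per bin multiplied by bin number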
Conditions: c terminus: a fixed tail appended
Simply state the number, no unit and no words.

query: Give the measured protein stability index of L19S .
result: 3.08

query: Looking for the measured protein stability index of N16R , can you help?
result: 2.92

query: Which measured protein stability index value corresponds to K13Q ?
result: 3.06
